src = a melting point compilation (Tetko et al.; mined from patent text by program, amines drawn as free bases though some values may be those of a salt)

readout: melting point

See these solved cases before continuing.
[
  {
    "molecule": "COc1ccc(CNc2nnc(-c3ccc(C(F)(F)F)cc3)cc2C(F)(F)F)cc1",
    "readout": "melting point",
    "measured value": "101 to 103 °C"
  },
  {
    "molecule": "O=C1CCC2=C1C(c1ccc(Br)s1)C1=C(CCS1)N2 (centres undefined)",
    "readout": "melting point",
    "measured value": "246 to 247 °C"
  },
  {
    "molecule": "CCOC(=O)c1ccc(NC(=O)c2ccc3c(c2)CCC(C)(C)C(=O)N3C)cc1",
    "readout": "melting point",
    "measured value": "169 to 170 °C"
  },
  {
    "molecule": "CC1NC(=O)NN=C1c1ccc(OCC(=O)NCCN2CCN(C(=O)c3ccc(Cl)cc3)CC2)c(Cl)c1 (centres undefined)",
    "readout": "melting point",
    "measured value": "186 to 188 °C"
  },
  {
    "molecule": "CCCCCCN1C(=O)NC(=O)C1O (centres undefined)",
    "readout": "melting point",
    "measured value": "96 to 97 °C"
  },
  {
    "molecule": "Cc1nc(Cl)c2c(c1O)COC2(c1ccccc1)c1cccc(Cl)c1Cl (centres undefined)",
    "readout": "melting point",
    "measured value": "221 °C"
  },
  {
    "molecule": "CN(C)CCCc1cccc(OCCCNc2nc(N)nn2C)c1",
    "readout": "melting point",
    "measured value": "64 to 65.5 °C"
  },
  {
    "molecule": "Nn1c(C(F)(F)F)cc(=O)n(-c2cc([N+](=O)[O-])c(Br)cc2F)c1=O",
    "readout": "melting point",
    "measured value": "165 °C"
  },
  {
    "molecule": "COc1cc2c(CCN3CCN(c4cccc(Cl)c4C)CC3)nn(Cc3c[nH]cn3)c2cc1OC",
    "readout": "melting point",
    "measured value": "143 to 144 °C"
  },
  {
    "molecule": "CCNc1nc(NC)cc(NS(=O)(=O)c2ccc(N)cc2)n1",
    "readout": "melting point",
    "measured value": "261 to 263 °C"
  }
]

Summary for this molecule, `Cc1ncc(C(=O)O)nc1C` : melting point is 187 °C

Summary for this molecule, Nc1c2c(nc3cc(F)ccc13)CCCC2O (centres undefined) : melting point is 203 to 206 °C

Summary for this molecule, `COc1cccc(NC(=O)C(C)(C)C)c1CCO` : melting point is 118 to 120 °C

Summary for this molecule, `CCOC(=O)c1c(-c2cc(C)c(O)c(C)c2)c(C)n2c1-c1cc(N)c(OC)cc1CC2` : melting point is 104 to 106 °C

Summary for this molecule, CCOC(=O)C(OS(N)(=O)=O)c1ccccc1 (centres undefined) : melting point is 91 to 93 °C

Summary for this molecule, `COC(=O)c1ccc(NCc2cccc(F)c2)cn1` : melting point is 89 to 92 °C

----------
readout: melting point

See these solved cases before continuing.
[
  {
    "molecule": "COc1ccc(-c2c(Cl)c(CN3C(=O)CCC3=O)nc3sc4c(c23)CCC(=O)C4)cc1",
    "melting point": "257 to 258 °C"
  },
  {
    "molecule": "CC(=O)/C=C(\\C)c1ccc(C2CCCCC2)cc1",
    "melting point": "49 to 50 °C"
  },
  {
    "molecule": "CCC(=O)C1(O)CC=C2CC3C4C=CC(O)C5OC1=C2C45CCN3C (stereo not drawn)",
    "melting point": "85 to 86 °C"
  }
]

Proceed to the following item.
Summary for this molecule, `Fc1ccc(-c2ccc3c(c2)C2(CCCCC2)C(=NOCc2ccccc2)N3)cc1` : melting point is 205 to 208 °C

----------
readout: melting point

[
  {
    "molecule": "CS(=O)(=O)c1ccc(-n2cc(C(F)(F)F)nc2-c2ccc(-c3cccs3)cc2)cc1",
    "melting point": "95 to 97 °C"
  },
  {
    "molecule": "COC(=O)C(C)Oc1cccc(C=Cc2ccc3ccc(Br)cc3n2)c1 (stereo unspecified)",
    "melting point": "101 to 102 °C"
  },
  {
    "molecule": "O=C(O)c1cc2ccccc2n1Cc1cccc(Cl)c1",
    "melting point": "188 to 189 °C"
  },
  {
    "molecule": "CC1CC(=O)Oc2cc(O)ccc21 (stereo unspecified)",
    "melting point": "109 to 110 °C"
  },
  {
    "molecule": "CN(Cc1cccc(-c2ccc(CC3SC(=O)NC3=O)cc2)c1)C(=O)CCCCC(=O)c1ccccc1 (stereo unspecified)",
    "melting point": "48 °C"
  },
  {
    "molecule": "O=C(NNS(=O)(=O)c1ccccc1)c1ccc(I)cc1",
    "melting point": "193 to 195 °C"
  },
  {
    "molecule": "COCCOc1cc(N(C)S(=O)(=O)c2ccccn2)c2[nH]c(C3=NCC(CN4CCS(=O)CC4)S3)cc2c1 (stereo unspecified)",
    "melting point": "182 to 183 °C"
  },
  {
    "molecule": "COc1cccc([C@H]2O[C@H](Cc3nc(=O)o[nH]3)C(=O)N(CC(C)(C)C)c3ccc(Cl)cc32)c1OC",
    "melting point": "130 to 133 °C"
  }
]

Summary for this molecule, `CCOC(=O)c1c(CSc2ccccc2)n(C)c2cc(Br)c(O)c(CN(C)C)c12` : melting point is 127 to 128 °C

Summary for this molecule, `COc1cc(C)c(C(=O)c2ccc(OCc3nc(-c4ccccc4)oc3C)cc2)c(O)c1` : melting point is 171 to 172 °C

Summary for this molecule, `CC(C)c1ccc(O[C@@H](Cc2ccc(OCCNC(=O)c3ccc(-c4ccccn4)cc3)cc2)C(=O)O)cc1` : melting point is 100 to 101 °C

----------
Measured melting point accompanies every entry in the list below.

[
  {
    "compound": "CC(=O)SC[C@H](NC(=O)C(C)C)C(=O)NCCSC(=O)C(C)(C)C",
    "melting point": "112 to 114 °C"
  },
  {
    "compound": "Clc1cccc(Cl)c1-c1nc(-c2ccccc2)c(-c2ccccc2)[nH]1",
    "melting point": "125 to 127 °C"
  },
  {
    "compound": "CCNC(=O)Nc1cc(C(=O)OC)c(O)c2ncc(Cc3ccc(F)cc3)cc12",
    "melting point": "280 to 282 °C"
  },
  {
    "compound": "CCOC(=O)C1=C2CCCN2C(C)=C(C(=O)OC)C1c1cccc([N+](=O)[O-])c1 (stereo unspecified)",
    "melting point": "120 °C"
  },
  {
    "compound": "Cc1cccc2c(C(=O)C(=O)NC3=CC(=O)OC3)c(C)n(Cc3ccc(Cl)cc3)c12",
    "melting point": "283 to 285 °C"
  }
]

Summary for this compound, `CCCNC(=O)c1cccnc1Oc1cccnc1` : melting point is 55 to 56 °C

Summary for this compound, `O=C(NCc1noc(-c2ccc(CN3CCCCCC3)s2)n1)c1ccccc1` : melting point is 79 to 81 °C

Summary for this compound, CCOC(=O)c1cn2c3c(c(Cl)ccc3c1=O)N(C)CC2C (stereo unspecified) : melting point is 259 to 261 °C

Summary for this compound, `CC(CCC(=O)O)(c1ccc(OCc2ccc3ccccc3n2)c(Cl)c1)c1ccc(OCc2ccc3ccccc3n2)c(Cl)c1` : melting point is 91 to 94 °C

Summary for this compound, `O=C(NCCCCCCOC(=O)N1CCC2(CCCC2)CC1)OC1CCN(C(=O)Oc2ccc3oc4ccccc4c3c2)CC1` : melting point is 100 to 102 °C

Summary for this compound, `OCc1cccc(-c2ncc(OCCN3CCOCC3)cn2)c1` : melting point is 101 to 102 °C

Summary for this compound, `C=CCNc1nc(NCc2ccccc2)nc2ccc([N+](=O)[O-])cc12` : melting point is 216 to 217 °C

Summary for this compound, CC(C)c1ccc(N(Cc2cnn(C)c2)C(=O)C2CCCc3c(O)cccc32)cc1 (stereo unspecified) : melting point is 215 °C

Summary for this compound, `O=C(Nc1ccc(C(F)(F)F)cc1)c1ccc(C=NO)cc1` : melting point is 221 to 222 °C

Summary for this compound, `CCCCCCCCCCCCCCCCCCOCCSCCOC(=O)NCc1ccccn1` : melting point is 60 to 62 °C

----------
readout: melting point

See these solved cases before continuing.
[
  {
    "compound": "CC=NOCc1nc2c(N)nc(C)c(C)c2n1CCCCNC(=O)c1ccccc1",
    "melting point": "192 to 194 °C"
  },
  {
    "compound": "O=Cc1cccc2c1OC(c1ccccc1)CC2=O (centres undefined)",
    "melting point": "112 to 113 °C"
  },
  {
    "compound": "Cn1c(=O)oc2cc(N3C[C@H](C(N)=O)OC3=O)ccc21",
    "melting point": "> 260 °C"
  }
]

Proceed to the following item.
Summary for this compound, O=C(Nc1ccc(C(F)(F)F)cc1)O[C@H]1COC(c2ccccc2)=N[C@@H]1c1ccccc1 (racemic) : melting point is 140 °C
